biological target: UniProt P56524; assay: Inhibition of human recombinant HDAC4 using Fluor de Lys as substrate by fluorimetric assay
EXPERIMENTAL_ENDPOINT: IC50 (µM)
Only the number, expressed in µM, is required.

Answered examples (5):
| SMILES_STRING | IC50 [µM] |
| --- | --- |
| CC(C)c1ccc(C(=O)/C=C/c2ccc(/C=C/C(=O)NO)o2)cc1 | 4.89 |
| Cc1ccc(C(=O)/C=C/c2ccc(/C=C/C(=O)NO)o2)cc1 | 1.1 |
| O=C(NO)c1ccc(/C=C/c2cccc(Cl)c2Cl)o1 | 49.3 |
| COc1ccc2cc(C(=O)/C=C/c3ccc(/C=C/C(=O)NO)o3)ccc2c1 | 4.04 |
| O=C(NO)c1ccc(/C=C/c2ccccc2O)o1 | 74.2 |

Turning now to a further compound:
Q: Given the compound O=C(/C=C/c1ccc(/C=C/C(=O)c2cccc(Cl)c2)o1)NO , what is its reported IC50?
A: 12.9

###

target: Histone deacetylase 4 (Homo sapiens, UniProt P56524); experiment: Inhibition of human recombinant HDAC4 using Fluor de Lys as substrate by fluorimetric assay
Sequence (P56524 whole entry): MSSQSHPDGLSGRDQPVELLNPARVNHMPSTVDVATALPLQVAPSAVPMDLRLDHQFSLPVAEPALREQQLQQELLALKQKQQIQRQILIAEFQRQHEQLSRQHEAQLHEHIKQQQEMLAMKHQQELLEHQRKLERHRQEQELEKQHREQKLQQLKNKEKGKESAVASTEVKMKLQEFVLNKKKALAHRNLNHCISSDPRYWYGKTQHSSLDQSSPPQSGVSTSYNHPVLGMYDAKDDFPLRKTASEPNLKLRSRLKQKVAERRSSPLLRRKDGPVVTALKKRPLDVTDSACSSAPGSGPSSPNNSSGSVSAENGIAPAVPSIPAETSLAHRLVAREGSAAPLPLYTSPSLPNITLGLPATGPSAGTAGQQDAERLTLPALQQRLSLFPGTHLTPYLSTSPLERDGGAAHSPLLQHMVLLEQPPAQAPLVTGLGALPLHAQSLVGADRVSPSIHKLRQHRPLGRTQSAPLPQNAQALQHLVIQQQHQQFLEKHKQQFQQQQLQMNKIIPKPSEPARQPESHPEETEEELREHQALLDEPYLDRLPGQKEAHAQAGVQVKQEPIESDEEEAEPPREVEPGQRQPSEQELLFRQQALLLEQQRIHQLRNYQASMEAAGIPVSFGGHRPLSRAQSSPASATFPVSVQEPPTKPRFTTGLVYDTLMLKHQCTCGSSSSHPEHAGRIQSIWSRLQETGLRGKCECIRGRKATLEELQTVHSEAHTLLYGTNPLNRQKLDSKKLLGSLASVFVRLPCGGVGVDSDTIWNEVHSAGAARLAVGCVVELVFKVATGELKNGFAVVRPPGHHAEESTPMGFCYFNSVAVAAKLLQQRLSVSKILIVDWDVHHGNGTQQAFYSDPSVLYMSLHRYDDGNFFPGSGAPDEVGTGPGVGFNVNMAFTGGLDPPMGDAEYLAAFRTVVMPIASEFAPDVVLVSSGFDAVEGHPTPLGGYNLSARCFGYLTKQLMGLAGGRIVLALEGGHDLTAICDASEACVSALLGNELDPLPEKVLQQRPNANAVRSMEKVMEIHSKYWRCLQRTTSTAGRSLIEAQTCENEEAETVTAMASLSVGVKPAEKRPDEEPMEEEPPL
EXPERIMENTAL_ENDPOINT: log10(IC50) (log10 of the value in µM)
All values: log10 IC50 [µM].

Consider the worked cases shown below.
| SMILES_STRING | REPORTED_MEASUREMENT |
| --- | --- |
| O=C(/C=C/c1ccc(/C=C/C(=O)c2ccc(F)cc2)o1)NO | 0.89 |
| COc1cc(/C=C/c2ccc(C(=O)NO)o2)ccc1OCc1ccccc1 | 1.01 |
| O=C(/C=C/c1ccc(/C=C/C(=O)c2cc(Cl)ccc2Cl)o1)NO | 0.63 |

Q: Reported log10(IC50), compound O=C(NO)c1ccc(/C=C/c2ccc3c(c2)OCO3)o1 : ____
A: 1.93

Q: Again, but for O=C(/C=C/c1ccc(/C=C/C(=O)c2ccc(Cl)cc2Cl)o1)NO
A: 0.91

Q: Now try CN(C)c1ccc(/C=C/c2ccc(C(=O)NO)o2)cc1 .
A: 1.70

###

species: Homo sapiens; experiment: Selectivity index, ratio of IC50 for human recombinant HDAC1 to IC50 for human recombinant HDAC4
EXPERIMENTAL_ENDPOINT: Ratio IC50
Lab note: record the figure alone, no unit after it.

See these solved cases before continuing.
| SMILES_STRING | EXPERIMENTAL_ENDPOINT | REPORTED_MEASUREMENT |
| --- | --- | --- |
| O=C(/C=C/c1ccc(/C=C/C(=O)c2cccc(Cl)c2)o1)NO | Ratio IC50 | 1 |
| CC(C)c1ccc(C(=O)/C=C/c2ccc(/C=C/C(=O)NO)o2)cc1 | Ratio IC50 | 4.9 |
| O=C(NO)c1ccc(/C=C/c2cccc(Cl)c2Cl)o1 | Ratio IC50 | 0.51 |
| O=C(NO)c1ccc(/C=C/c2ccccc2)o1 | Ratio IC50 | 1.04 |
| O=C(NO)c1ccc(/C=C/c2ccccc2O)o1 | Ratio IC50 | 0.63 |
| O=C(/C=C/c1ccc(/C=C/C(=O)c2cc(Cl)ccc2Cl)o1)NO | Ratio IC50 | 1.1 |
| O=C(/C=C/c1ccc(/C=C/C(=O)c2ccc(Cl)cc2Cl)o1)NO | Ratio IC50 | 0.5 |

Q: What value of Ratio IC50 has been recorded for this entry: Cc1ccc(C(=O)/C=C/c2ccc(/C=C/C(=O)NO)o2)cc1
A: 11.9

###

target: Histone deacetylase 1 (Homo sapiens, UniProt Q13547); assay: Inhibition of human recombinant HDAC1 using Fluor de Lys as substrate by fluorimetric assay
Sequence (Q13547 whole entry): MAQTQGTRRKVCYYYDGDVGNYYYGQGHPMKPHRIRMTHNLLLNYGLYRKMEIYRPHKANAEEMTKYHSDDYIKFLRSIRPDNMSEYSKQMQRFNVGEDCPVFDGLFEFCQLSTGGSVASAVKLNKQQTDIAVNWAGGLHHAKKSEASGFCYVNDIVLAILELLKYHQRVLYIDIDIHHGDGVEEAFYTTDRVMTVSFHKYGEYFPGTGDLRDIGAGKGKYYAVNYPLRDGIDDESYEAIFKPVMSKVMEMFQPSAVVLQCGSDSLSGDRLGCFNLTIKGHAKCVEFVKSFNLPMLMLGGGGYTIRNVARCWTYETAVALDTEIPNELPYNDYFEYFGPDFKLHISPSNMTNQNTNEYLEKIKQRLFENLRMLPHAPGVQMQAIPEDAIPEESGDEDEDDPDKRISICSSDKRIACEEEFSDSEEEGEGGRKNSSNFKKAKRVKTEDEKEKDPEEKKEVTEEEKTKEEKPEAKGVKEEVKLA
EXPERIMENTAL_ENDPOINT: pIC50
Note: pIC50 values are expressed as the negative base-10 logarithm of concentration in M.

Example cases with answers are listed next.
| SMILES_STRING | REPORTED_MEASUREMENT |
| --- | --- |
| CC(C)c1ccc(C(=O)/C=C/c2ccc(/C=C/C(=O)NO)o2)cc1 | 4.62 |
| O=C(NO)c1ccc(/C=C/c2ccc3c(c2)OCO3)o1 | 4.53 |

Then this compound:
Q: // returns reported pIC50 for input COc1cccc(/C=C/c2ccc(C(=O)NO)o2)c1O
A: 4.30

###

test system: HCT-116; test: Antiproliferative activity against human HCT116 cells after 48 hrs by MTT assay; assay type: functional, cell-based; details: HCT-116, 48 h
EXPERIMENTAL_ENDPOINT: IC50 (nM)
Use nM as the unit, but write only the number.

Reference set, count: 3
| SMILES_STRING | IC50 / nM |
| --- | --- |
| O=C(NO)c1ccc(/C=C/c2ccc(O)cc2)o1 | 2730 |
| O=C(CCCCCCC(=O)Nc1ccccc1C(=O)NO)Nc1ccccc1 | 2690 |
| O=C(NO)c1ccc(/C=C/c2ccc3c(c2)OCO3)o1 | 4980 |

Q: Suppose we examine the compound Nc1ccccc1NC(=O)c1ccc(CNC(=O)OCc2cccnc2)cc1 ; what IC50 value has been reported?
A: 27500

Q: Consider next the compound O=C(/C=C/c1ccc(/C=C/C(=O)c2ccccc2)o1)NO in the same way.
A: 2890

Q: Another compound to check: O=C(/C=C/c1ccc(/C=C/C(=O)c2ccc(Cl)cc2Cl)o1)NO
A: 6730

Q: Field entry: O=C(/C=C/c1ccc(/C=C/C(=O)c2cccc(Cl)c2)o1)NO
A: 1510

Q: Same question, CC(C)c1ccc(C(=O)/C=C/c2ccc(/C=C/C(=O)NO)o2)cc1 this time
A: 490

Q: What do you have for O=C(/C=C/c1ccc(/C=C/C(=O)c2ccc(F)cc2)o1)NO ?
A: 2820

Q: Moving on to O=C(NO)c1ccc(/C=C/c2ccccc2O)o1
A: 5100

Q: Record: O=C(NO)c1ccc(/C=C/c2ccccc2)o1
A: 2490

Q: Try this compound too: Cc1ccc(C(=O)/C=C/c2ccc(/C=C/C(=O)NO)o2)cc1
A: 540

###

molecular target: Histone deacetylase 4 (Homo sapiens); experiment: Inhibition of human recombinant HDAC4 using Fluor de Lys as substrate by fluorimetric assay
EXPERIMENTAL_ENDPOINT: IC50 (µM)
Write it as a number; the unit µM goes unstated.

Recorded results for 3 molecules are shown here.
| SMILES_STRING | IC50 [µM] |
| --- | --- |
| O=C(NO)c1ccc(/C=C/c2ccc(O)cc2)o1 | 57.1 |
| O=C(CCCCCCC(=O)Nc1ccccc1C(=O)NO)Nc1ccccc1 | 0.55 |
| O=C(/C=C/c1ccc(/C=C/C(=O)c2ccc3ccccc3c2)o1)NO | 4.38 |

Q: I'd like to know its IC50. The molecule in question is O=C(/C=C/c1ccc(/C=C/C(=O)c2ccccc2)o1)NO
A: 22.8

Q: Also O=C(/C=C/c1ccc(/C=C/C(=O)c2ccc(Cl)cc2)o1)NO ?
A: 6.03

Q: Now this one: O=C(NO)c1ccc(/C=C/c2ccccc2)o1
A: 47.2

Q: Follow-up item: COc1cccc(/C=C/c2ccc(C(=O)NO)o2)c1O
A: 42.8

###

Reported values of pIC50 for individual entries
target: Histone deacetylase 1 (Homo sapiens); assay: Inhibition of human recombinant HDAC1 using Fluor de Lys as substrate by fluorimetric assay
Answer as the number alone; pIC50 is minus log10 of concentration in mol/L.

Please review the entries below; each comes with its answer.
| SMILES_STRING | pIC50 |
| --- | --- |
| O=C(/C=C/c1ccc(/C=C/C(=O)c2ccc(Cl)cc2Cl)o1)NO | 5.37 |
| O=C(/C=C/c1ccc(/C=C/C(=O)c2cc(Cl)ccc2Cl)o1)NO | 5.33 |
| COc1cc(/C=C/c2ccc(C(=O)NO)o2)ccc1OCc1ccccc1 | 4.87 |
| COc1ccc2cc(C(=O)/C=C/c3ccc(/C=C/C(=O)NO)o3)ccc2c1 | 4.96 |
| O=C(NO)c1ccc(/C=C/c2cccc(Cl)c2Cl)o1 | 4.60 |

Q: Name the reported pIC50 value associated with the compound CN(C)c1ccc(/C=C/c2ccc(C(=O)NO)o2)cc1
A: 4.31

###

tested on: HepG2; assay: Antiproliferative activity against human HepG2 cells after 48 hrs by MTT assay; type: functional, cell-based; conditions: HepG2, 48 h
EXPERIMENTAL_ENDPOINT: pIC50
Interpret pIC50 as the negative base-10 log of the concentration measured in mol/L.

Solved entries (count: 3):
| COMPOUND | REPORTED_MEASUREMENT |
| --- | --- |
| O=C(NO)c1ccc(/C=C/c2ccccc2O)o1 | 4.27 |
| O=C(CCCCCCC(=O)Nc1ccccc1C(=O)NO)Nc1ccccc1 | 4.20 |
| COc1ccc2cc(C(=O)/C=C/c3ccc(/C=C/C(=O)NO)o3)ccc2c1 | 5.21 |

Q: What does the data say about its pIC50? Entry: O=C(/C=C/c1ccc(/C=C/C(=O)c2cccc(Cl)c2)o1)NO
A: 4.26

Q: // repeat for O=C(/C=C/c1ccc(/C=C/C(=O)c2ccc(F)cc2)o1)NO and report
A: 4.92
